- target.or.system: human DLL4 (human) (UniProt Q9NR61)
- procedure.summary: Biacore (SPR), DVD-Ig and huDLL4
quantity.kind: Kd (nM)
Write the number in nM without appending the unit.

h1A11.1-H3-S2-SS-Anti-VEGF DVD-Ig (bispecific antibody, part only; not given: anti-VEGF domains, h1A11.1 VL, constant regions, part only) heavy, part: EVQLVESGGGLVQPGGSLRLSCAASGFTFRNFPMAWVRQAPGKGLEWVASISSSDGTTNYRDSVKGRFTISRDNAKSSLYLQMNSLRAEDTAVYYCARGYYNSPFAYWGQGTLVTVSSASTKGP light, part: TVAAP ... 1.04
h1A11.1-G7-S2-SS-Anti-VEGF DVD-Ig (bispecific antibody, part only; not given: anti-VEGF domains, h1A11.1 VL, constant regions, part only) heavy, part: EVQLVESGGGLVQPGGSLRLSCAASGFTFNHFPMAWVRQAPGKGLEWVATISSSDWTPYYRDSVKGRFTISRDNAKNSLYLQMNSLRAEDTAVYYCARGYYNSPFAYWGQGTLVTVSSASTKGP light, part: TVAAP ... 1.32
h1A11.1-B9-S2-SS-Anti-VEGF DVD-Ig (bispecific antibody, part only; not given: anti-VEGF domains, h1A11.1 VL, constant regions, part only) heavy, part: EVQLVESGGGLVQPGGSLRLSCAASGFTFSHFPMAWVRQAPGKGLEWVASISSSDSTTNYRDSVKGRFTISRDNAKNSLYLQMNSLRAEDTAVYYCARGYYNSPFAYWGQGTLVTVSSASTKGP light, part: TVAAP ... 0.923

Let us examine a further case.
Indicate the recorded Kd value for this binder: h1A11.1-F7-S2-SS-Anti-VEGF DVD-Ig (bispecific antibody, part only; not given: anti-VEGF domains, h1A11.1 VL, constant regions, part only) heavy, part: EVQLVESGGGLVQPGGSLRLSCAASGFTFRHFPMTWVRQAPGKGLEWVASISSSDGTINYRDSVKGRFTISRDNAKNSLYLQMNSLRAEDTAVYYCARGYYNSPFAYWGQGTLVTVSSASTKGP light, part: TVAAP
0.556
